This collection of values is drawn from patent US5192799A.

- Test system: right ventricle (effective refractory period)
- Experiment Notes: Activity on ERP of the right ventricle
- Format: in vivo, adult mongrel dog
- Measurement Conditions: Canis lupus familiaris, iv; 0.1 mg/kg i.v.; ERP before drug = 100%; read-out: ERP % (ERP prolonging activity)
Assign classes using reported change in vivo at 0.1 mg/kg values and the ranges lower segment: < 2%; middle segment: ≥ 2% and < 6%; upper segment: ≥ 6%, please.

Lookup: Looking at CCN(CCCOc1ccc2c(c1)OCC2=O)CC1CCCO1 (stereo not drawn) [Compound 184] , which class would you pick?
Found: middle segment

Lookup: Category of O=C1COc2cc(OCCCN3CCC(Cc4ccccc4)CC3)ccc21 [Compound 1146] :
Found: middle segment

Lookup: Which class holds CCCCCCC[N+](CC)(CC)CCCOc1ccc2c(c1)OCC2=O.[Br-] [Compound 286] ?
Found: middle segment

Lookup: Which of the defined bands does the recorded change in vivo at 0.1 mg/kg of CCCCCCCN(CC)CCCOc1ccc2c(c1OC)OCC2=O [Compound 244] sit within?
Found: lower segment

###

activation at 10 µg/mL values for the molecules below.
- Tested on: Purkinje fiber
- Experiment Notes: Effect on APD (APD75, field-stimulated right ventricular free wall)
- Format: cell-based, adult mongrel dog
- Measurement Conditions: Canis lupus familiaris, purkinje, 20 min, dose 10 μg/ml, 20 minutes incubation, 37° C., 1 Hz; control before drug = 100%; read-out: APD75 % (percent change in APD75)
# do not omit the unit; it follows the number

CCCCCCCN(CC)CCCOc1ccc2c(c1OC)OCC2=O : 11%
O=C1COc2cc(OCCCN3CCC(CO)CC3)ccc21 : 28%
CCCCN(CCCC)CCOc1ccc2c(c1)OCC2=O : 8%
CCCCCCC[N+](CC)(CC)CCCOc1ccc2c(C)c(C)c(=O)oc2c1 : 11%
C=CCN(CCCOc1ccc2c(c1)OCC2=O)C1CCCCC1 : 11%
C=CC[N+](CC)(CCCOc1ccc2c(c1)OCC2=O)C1CCCCC1 (centres unmarked) : 35%

Now take the following molecule into account.
Lookup result for COCCN(CCCOc1ccc2c(c1)OCC2=O)CCOC ; measured activation at 10 µg/mL: 23%

###

- Experimental System: serotonine 2 receptor (Rattus norvegicus, UniProt P14842)
- Sequence (P14842 whole entry): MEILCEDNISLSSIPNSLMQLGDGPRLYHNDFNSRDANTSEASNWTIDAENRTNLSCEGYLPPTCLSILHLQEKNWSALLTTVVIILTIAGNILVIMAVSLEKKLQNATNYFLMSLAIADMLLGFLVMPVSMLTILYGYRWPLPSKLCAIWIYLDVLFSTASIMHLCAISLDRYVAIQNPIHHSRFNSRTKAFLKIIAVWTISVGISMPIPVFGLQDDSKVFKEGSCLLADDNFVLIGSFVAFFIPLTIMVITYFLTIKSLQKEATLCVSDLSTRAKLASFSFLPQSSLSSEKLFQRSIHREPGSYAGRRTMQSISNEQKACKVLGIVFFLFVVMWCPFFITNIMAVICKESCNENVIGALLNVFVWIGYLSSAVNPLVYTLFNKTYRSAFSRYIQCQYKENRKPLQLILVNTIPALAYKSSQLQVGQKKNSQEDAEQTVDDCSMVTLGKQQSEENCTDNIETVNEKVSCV
Property Label: pKi
Answer as the number alone; pKi is minus log10 of concentration in mol/L.

CS(=O)(=O)NC1CCN(CCCOc2ccc3c(c2)OCC3=O)CC1 : 6.32
O=C1NC(=O)c2cc(OCCCN3CCC(Cc4ccccc4)CC3)ccc21 : 6.64
O=C1COc2cc(OCCCN3CCN(c4ccccc4)CC3)ccc21 : 6.76
O=C1COc2cc(OCCCN3CCC(C(=O)c4ccc(F)cc4)CC3)ccc21 : 8.04

Assay serotonine 2 receptor (Rattus norvegicus, UniProt P14842), sample O=C1COc2cc(OCCCN3CCC(Cc4ccccc4)CC3)ccc21 , pKi read: 6.36

# pKi measured on serotonine 2 receptor (Rattus norvegicus, UniProt P14842) for item CN1C(=O)Cc2cnc(N3CCN(CCCOc4ccc5c(c4)OCC5=O)CC3)nc21 = 6.50

Note to self: pKi of O=C1COc2cc(OCCCN3CCC(O)(c4ccccc4)CC3)ccc21 with serotonine 2 receptor (Rattus norvegicus, UniProt P14842) was 6.51
